Measured values drawn from PubChem BioAssay for this set.

Listed compounds paired with reported inhibition
# Assay Text: inhibitors of TNFa-induced NFkB p65 translocation, primary screen, imaging, HUVEC, MLSMR starter and 10KST1 sets (AID 438);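 also: compound added about 3h40 before a 20 min TNFalpha stimulation; signal is the nuclear over cytoplasmic p65 intensity ratio per well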
# Applied Conditions: HUVEC TNFa-induced p65 nuclear translocation; at 2 µM, active compounds read high, 0% TNFa-plus-vehicle, 100% no-TNFa wells
Active and inactive are the calls of the source.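 The calls were made as follows: active = inhibition above 20% together with a positive visual image hit; inconclusive = visual image hit but inhibition not above 20%; inactive = no visual image hit.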

>  <Compound>
CCCC(c1nnnn1Cc1ccc(OC)cc1)N1CCN(c2ccccc2OC)CC1 (stereo unspecified)

>  <inhibition>
12.3% (inactive)

$$$$
>  <Compound>
Cc1cccc(NC(=O)Nc2cccc(C#N)c2)n1

>  <inhibition>
-1.7% (inactive)

$$$$
>  <Compound>
Cn1c(=O)c2c(nc(SCC(=O)NCc3ccco3)n2C)n(C)c1=O

>  <inhibition>
1.7% (inactive)

$$$$
>  <Compound>
CCOC(=O)c1[nH]c(CSc2nnc(-c3ccncc3)n2CCOC)c(C(=O)OCC)c1C

>  <inhibition>
1.1% (inactive)

$$$$
>  <Compound>
COc1ccc(C(NC(=O)C(C)(C)C)NC(=O)C(C)(C)C)cc1

>  <inhibition>
3% (inactive)

$$$$
>  <Compound>
CCCCC(O)(C(NC=O)C(=O)OC)C(F)(F)F (stereo unspecified)

>  <inhibition>
-10.7% (inactive)

$$$$
>  <Compound>
COc1ccccc1Nc1nc2ccccc2[nH]1

>  <inhibition>
4.7% (inactive)

$$$$
>  <Compound>
Cc1ccc(C2c3sc(=O)[nH]c3SC3C(=O)NC(=O)C32)cc1 (stereo unspecified)

>  <inhibition>
6.1% (inactive)

$$$$
>  <Compound>
COc1ccc(-c2nc(CS(=O)CC(=O)NCc3ccccn3)c(C)o2)cc1 (stereo unspecified)

>  <inhibition>
1.9% (inactive)

$$$$
>  <Compound>
CCOC(=O)C1=C(NC#N)OC(C)=C(C)C1c1ccc(O)cc1 (stereo unspecified)

>  <inhibition>
1% (inactive)

$$$$
>  <Compound>
CCOC(=O)N1CCC(N2C(=O)c3ccccc3C2Nc2ccc3c(C)cc(=O)oc3c2)CC1 (stereo unspecified)

>  <inhibition>
2.3% (inactive)

$$$$
